Molecular target: human Epidermal Growth Factor Receptor (huEGFR) over-expressed in mcl-1-/- mouse embryonic fibroblasts (human, UniProt P00533 25-1210)
Experiment: cell-based or functional assay
# huEGFR^+ mcl-1^-/- MEF EC50 per record follows
Kindly provide the numeric value in nM only, without the unit symbol.

For reference, reported huEGFR^+ mcl-1^-/- MEF EC50 for AbB-XW (antibody, V domains shown, synthon XW on reduced interchain Cys) VH: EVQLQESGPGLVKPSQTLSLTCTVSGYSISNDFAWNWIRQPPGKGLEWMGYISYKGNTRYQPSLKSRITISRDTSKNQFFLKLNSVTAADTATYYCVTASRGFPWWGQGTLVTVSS VL: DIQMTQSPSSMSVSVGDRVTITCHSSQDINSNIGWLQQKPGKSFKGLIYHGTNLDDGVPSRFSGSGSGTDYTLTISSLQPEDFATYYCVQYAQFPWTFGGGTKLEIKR stands at 0.65

For reference, reported huEGFR^+ mcl-1^-/- MEF EC50 for AbA-TV (antibody, V domains shown, synthon TV on reduced interchain Cys) VH: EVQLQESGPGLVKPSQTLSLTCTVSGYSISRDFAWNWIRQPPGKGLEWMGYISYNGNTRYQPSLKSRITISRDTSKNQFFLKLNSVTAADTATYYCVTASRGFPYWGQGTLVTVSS VL: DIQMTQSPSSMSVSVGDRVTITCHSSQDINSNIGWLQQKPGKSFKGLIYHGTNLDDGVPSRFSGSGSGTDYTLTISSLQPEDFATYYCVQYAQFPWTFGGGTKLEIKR stands at 3
